# system-tested: IDH1R132C (Homo sapiens (Human), UniProt O75874, R132C)
# Sequence (O75874 whole entry R132C): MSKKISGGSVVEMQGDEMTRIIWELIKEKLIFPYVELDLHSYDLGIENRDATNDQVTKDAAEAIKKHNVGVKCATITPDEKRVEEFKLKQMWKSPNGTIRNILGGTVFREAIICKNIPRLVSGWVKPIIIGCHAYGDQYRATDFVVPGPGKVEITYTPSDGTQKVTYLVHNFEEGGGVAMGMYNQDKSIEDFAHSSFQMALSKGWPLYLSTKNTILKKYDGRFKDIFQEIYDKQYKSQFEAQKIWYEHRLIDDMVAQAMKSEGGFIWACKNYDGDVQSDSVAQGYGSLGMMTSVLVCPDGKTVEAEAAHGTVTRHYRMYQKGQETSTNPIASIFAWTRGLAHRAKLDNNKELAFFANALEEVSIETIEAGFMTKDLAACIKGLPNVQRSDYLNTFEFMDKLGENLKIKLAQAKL
# test-description: Inhibitory activity against IDH1R132C enzyme (NADPH detection, WST-8)
# condition-details: 10 nM, residual NADPH detected with WST-8, read-out: Test Example 1 IDH1 R132C IC50
# Procedure: After transformation of Rosetta 2 (DE3) E. coli, the expression of the protein was induced with IPTG. While NADPH-derived fluorescence was occasionally monitored, the reaction was terminated by the addition of 5 μL of 0.5 M EDTA before consumption of NADPH. […] 15 minutes later, the absorbance at 450 nm was measured using a plate reader (PerkinElmer, Inc., EnVision). The observed absorbance value reflects the amount of residual NADPH. […]
Answer each item with its documented IC50.
Form field: result (number plus unit)

Below are worked cases with known answers.
record-smiles	reported
C=CC(=O)N1CCN(c2onc(-c3c(Cl)cccc3Cl)c2C(=O)n2ccc3c(/C=C/C(=O)O)cccc32)C2(CC2)C1	78 nM
COCC1(c2onc(-c3c(Cl)cc(Cl)cc3Cl)c2C(=O)n2cc(C)c3c(/C=C/C(=O)O)cccc32)CCC1	335 nM
Cc1cn(C(=O)c2c(-c3c(Cl)cc(Cl)cc3Cl)noc2C(C)(F)F)c2cccc(/C=C/C(=O)O)c12	115 nM
C=CC(=O)N1CCN(c2onc(-c3c(Cl)cccc3Cl)c2C(=O)n2ccc3c(/C=C/C(=O)O)cccc32)[C@@H](C)C1	214 nM
C=CC(=O)N1CCC(c2onc(-c3cc(F)c(Cl)cc3Cl)c2C(=O)n2cc(C)c3c(/C=C/C(=O)O)cccc32)CC1	110 nM
C=CC(=O)N1CCC(c2onc(-c3c(Cl)cc(Cl)cc3Cl)c2C(=O)n2ccc3c(/C=C/C(=O)O)cccc32)CC1	272 nM
C=CC(=O)N1CC(c2onc(-c3c(Cl)cc(Cl)cc3Cl)c2C(=O)n2ccc3c(/C=C/C(=O)O)cccc32)C1	67 nM

Look up IC50 of C=CC(=O)N1CCC(c2onc(-c3c(Cl)cc(Cl)cc3Cl)c2C(=O)n2ccc3c(/C=C(\C)C(=O)O)cccc32)CC1 and report it.
471 nM

----------
# System: HT-1080 cells expressing IDH1R132C
# test-description: 2-HG production inhibitory activity using HT1080 cell
# Format: cell-based, human
# condition-details: Homo sapiens, HT-1080; 2-HG production, HT1080 cells; read-out: Test Example 3 IC50
outcome-measure: IC50 (nM)
Give bare numbers, in nM.

compound	IC50, nM
C#CC(=O)N1CC(c2onc(-c3c(Cl)cc(Cl)cc3Cl)c2C(=O)n2ccc3c(/C=C/C(=O)O)cccc32)C1	32
Cc1cn(C(=O)c2c(-c3c(Cl)cc(Cl)cc3Cl)noc2C2(CN(C)C)CCC2)c2cccc(/C=C/C(=O)O)c12	61
C=CC(=O)N1CCC(c2onc(-c3ccc(Cl)cc3Cl)c2C(=O)n2cc(C)c3c(/C=C/C(=O)O)cccc32)CC1	23

Working through the 6 compounds below one at a time, give IC50 for each.
1. CC(C)(F)c1onc(-c2c(Cl)cc(Cl)cc2Cl)c1C(=O)n1ccc2c3c(ccc21)CCC(C(=O)O)C3 (stereo not drawn)
2. Cc1cn(C(=O)c2c(-c3c(Cl)cc(Cl)cc3Cl)noc2C(C)(C)C)c2cccc(/C=C/C(=O)O)c12
3. Cc1cc(Cl)cc(Cl)c1-c1noc(C(C)(C)C)c1C(=O)n1ccc2c(/C=C/C(=O)O)cccc21
4. C=CC(=O)N1CCN(c2onc(-c3c(Cl)cc(Cl)cc3Cl)c2C(=O)n2ccc3c(/C=C/C(=O)O)cccc32)C[C@H]1C
5. COC1(c2onc(-c3c(Cl)cc(Cl)cc3Cl)c2C(=O)n2ccc3c(/C=C/C(=O)O)cccc32)CC1
6. CC1(c2onc(-c3c(Cl)cc(Cl)cc3Cl)c2C(=O)n2cc3c4c(cccc42)/C(=C/C(=O)O)CC3)COC1

1. 136
2. 43
3. 254
4. 114
5. 194
6. 22

----------
# Tested on: HT-1080 cells expressing IDH1R132C
# test-description: 2-HG production inhibitory activity using HT1080 cell
# Format: cell-based, human
# condition-details: Homo sapiens, HT-1080; 2-HG production, HT1080 cells; read-out: Test Example 3 IC50
Answer each item with its documented IC50.
Give bare numbers, in nM.

Below are worked cases with known answers.
compound	IC50, nM
C=CC(=O)N1C[C@@H](C)N(c2onc(-c3c(Cl)cc(Cl)cc3Cl)c2C(=O)n2ccc3c(/C=C/C(=O)O)cccc32)[C@@H](C)C1 [Example 151]	41
C=CS(=O)(=O)N1CCN(c2onc(-c3c(Cl)cccc3Cl)c2C(=O)n2ccc3c(/C=C/C(=O)O)cccc32)CC1 [Example 149]	278
CC(C)(F)c1onc(-c2ccc(Cl)c(F)c2Cl)c1C(=O)n1cc2c3c(cccc31)/C(=C/C(=O)O)CC2 [Example 20]	435

Please look at the following compound next.
Please indicate recorded IC50 of CC(C)(C)c1noc(-c2c(Cl)cc(Cl)cc2Cl)c1C(=O)n1ccc2c(/C=C/C(=O)O)cccc21 [Example 34] measured with HT-1080 cells expressing IDH1R132C.
209

----------
# System: HT-1080 cells expressing IDH1R132C
# test-description: 2-HG production inhibitory activity using HT1080 cell
# Assay type: cell-based, human
# condition-details: Homo sapiens, HT-1080; 2-HG production, HT1080 cells; read-out: Test Example 3 IC50
outcome-measure: pIC50
Numbers only, as −log10 of the molar value.

Below are worked cases with known answers.
record-smiles	reported
C=CC(=O)N1CC(OC)(c2onc(-c3c(Cl)cc(Cl)cc3Cl)c2C(=O)n2ccc3c(/C=C/C(=O)O)cccc32)C1	6.79
Cc1cn(C(=O)c2c(-c3c(Cl)cc(Cl)cc3Cl)noc2C(F)(F)F)c2cccc(/C=C/C(=O)O)c12	6.47
Cc1cn(C(=O)c2c(-c3c(Cl)ccc(F)c3Cl)noc2C(C)C)c2cccc(/C=C/C(=O)O)c12	6.46
C=CC(=O)N1CCC(c2onc(-c3c(Cl)cc(Cl)cc3Cl)c2C(=O)n2ncc3c(/C=C/C(=O)O)cccc32)CC1	7.01

Working through the 3 compounds below one at a time, give pIC50 for each.
1. CC(C)(C)c1onc(-c2c(Cl)cccc2Br)c1C(=O)n1ccc2c(/C=C/C(=O)O)cccc21
2. CC(C)(C)c1onc(-c2c(Cl)cc(Cl)cc2Cl)c1C(=O)n1cc(F)c2c(/C=C/C(=O)O)cccc21
3. C=CC(=O)N1CC2(CC2)N(c2onc(-c3c(Cl)cccc3OC)c2C(=O)n2ccc3c(/C=C/C(=O)O)cccc32)C[C@H]1CC

6.41
7.24
6.92

Working through the 2 compounds below one at a time, give pIC50 for each.
1. C=CC(=O)N1CC(C)(c2onc(-c3c(Cl)cc(Cl)cc3Cl)c2C(=O)n2ccc3c(/C=C/C(=O)O)cccc32)C1
2. C=CC(=O)N1CCN(c2onc(-c3c(Cl)cccc3Cl)c2C(=O)n2ccc3c(/C=C/C(=O)O)cccc32)[C@H](C2CC2)C1

[7.47, 6.53]

----------
Answer each item with its documented IC50.
# system-tested: IDH1R132C (Homo sapiens (Human), UniProt O75874, R132C)
# test-description: Inhibitory activity against IDH1R132C enzyme (NADPH detection, WST-8)
# condition-details: 10 nM, residual NADPH detected with WST-8, read-out: Test Example 1 IDH1 R132C IC50
Answers are plain numbers, in µM.

Below are worked cases with known answers.
compound	outcome-measure	quantity-unit	reported
COC1(c2onc(-c3c(Cl)cc(Cl)cc3Cl)c2C(=O)n2cc(C)c3c(/C=C/C(=O)O)cccc32)CC1	IC50	µM	0.098
CC(C)(F)c1onc(-c2c(Cl)cc(Cl)cc2Cl)c1C(=O)n1cc2c3c(c(F)ccc31)/C(=C/C(=O)O)CC2	IC50	µM	0.154
C=CC(=O)N1CC2(CC2)N(c2onc(-c3c(Cl)cccc3Cl)c2C(=O)n2ccc3c(/C=C/C(=O)O)cccc32)C[C@H]1C	IC50	µM	0.122

Working through the 6 compounds below one at a time, give IC50 for each.
1. C=CS(=O)(=O)N1CCC(c2onc(-c3c(Cl)cc(Cl)cc3Cl)c2C(=O)n2ccc3c(/C=C/C(=O)O)cccc32)CC1
2. CC1(c2onc(-c3c(Cl)cc(Cl)cc3Cl)c2C(=O)n2cc3c4c(cccc42)/C(=C/C(=O)O)CC3)COC1
3. Cc1cn(C(=O)c2c(-c3c(Cl)cc(Cl)cc3Cl)noc2C2(N)CCC2)c2cccc(/C=C/C(=O)O)c12
4. CC(C)(F)c1onc(-c2c(Cl)cc(Cl)cc2Cl)c1C(=O)n1cc(F)c2c(/C=C/C(=O)O)cccc21
5. C=CC(=O)N1CCN(c2onc(-c3c(Cl)cc(Cl)cc3Cl)c2C(=O)n2ccc3c(/C=C/C(=O)O)cccc32)C(C)C1 (stereo in doubt)
6. CN(C)C1(c2onc(-c3c(Cl)cc(Cl)cc3Cl)c2C(=O)n2cc3c4c(cccc42)/C(=C/C(=O)O)CC3)CC1

1: 0.114; 2: 0.055; 3: 0.059; 4: 0.114; 5: 0.144; 6: 0.08
